As a worked illustration, we turn to log10 of MIC data collected for S. aureus ATCC25923.
# values: log10(MIC), units µg/mL

Recorded log10 of MIC, per entry:
O=S1(=O)N=C(Nc2nnc(SCc3ccccc3Cl)s2)c2ccccc21 [C11.9] :: 2.11
O=S1(=O)C=C(Sc2nnc(-c3ccccc3)o2)c2ccccc21 [C11.2] :: 0.90
CO[C@H]1/C=C/O[C@@]2(C)Oc3c(C)c(O)c4c(O)c(c(/C=N/N5CCN(C)CC5)c(O)c4c3C2=O)NC(=O)/C(C)=C\C=C\[C@H](C)[C@H](O)[C@@H](C)[C@@H](O)[C@@H](C)[C@H](OC(C)=O)[C@@H]1C [Rifampicin, reference compound] :: -1.52
CC(=O)NC[C@H]1CN(c2ccc(N3CCOCC3)c(F)c2)C(=O)O1 [Linezolid, reference compound] :: 0.30

Look up log10 of MIC for this compound: C[C@@H](O)[C@H]1C(=O)N2C(C(=O)O)=C(S[C@@H]3CN[C@H](C(=O)N(C)C)C3)[C@H](C)[C@H]12 [Meropenem, reference compound]
-0.60

Look up log10 of MIC for this compound: COc1ccc(Cc2nnc(SC3=CS(=O)(=O)c4ccccc43)o2)cc1 [C11]
0.30

Look up log10 of MIC for this compound: CC(C)(O/N=C(\C(=O)N[C@@H]1C(=O)N2C(C(=O)[O-])=C(C[n+]3ccccc3)CS[C@H]12)c1csc(N)n1)C(=O)O [Ceftazidime, reference compound]
1.20

Look up log10 of MIC for this compound: CC[C@H]1OC(=O)[C@H](C)[C@@H](O[C@H]2C[C@@](C)(OC)[C@@H](O)[C@H](C)O2)[C@H](C)[C@@H](O[C@@H]2O[C@H](C)C[C@H](N(C)C)[C@H]2O)[C@](C)(O)C[C@@H](C)C(=O)[C@H](C)[C@@H](O)[C@]1(C)O [Erythromycin, reference compound]
-0.30
